Reported protein stability index by item:
B1: TRIM55 (parent)
chain: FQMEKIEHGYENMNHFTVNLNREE

# Variants of: B1
# ASSAY COMMENT: protein stability index of a GFP-peptide fusion (GPS, HEK-293T) (PSI 1-6); higher = more stable;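 note: lentivirally expressed fusions sorted by FACS into six bins by GFP to DsRed ratio, PSI derived from sequencing read proportions per bin multiplied by bin number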
# STATED CONDITIONS: c terminus: a fixed tail appended

SEQUENCE CHAIN: FQMEKIEHGYENMNHFTCNLNREE [V18C]
protein stability index: 2.03
//
SEQUENCE CHAIN: FQMEKIEHGYENMNHFTVNLNREH [E24H]
protein stability index: 2.43
//
SEQUENCE CHAIN: FQMEKIEHGYENMNHFTVNLNRSE [E23S]
protein stability index: 2.67
//
SEQUENCE CHAIN: FQMEKLEHGYENMNHFTVNLNREE [I6L]
protein stability index: 3.44
//
SEQUENCE CHAIN: FQMEKIEHGYEYMNHFTVNLNREE [N12Y]
protein stability index: 1.84
//
SEQUENCE CHAIN: FPMEKIEHGYENMNHFTVNLNREE [Q2P]
protein stability index: 3.86
//
SEQUENCE CHAIN: FQMEKIEHGYENMNHFTFNLNREE [V18F]
protein stability index: 3.21
//
SEQUENCE CHAIN: FQGEKIEHGYENMNHFTVNLNREE [M3G]
protein stability index: 3.62
//
SEQUENCE CHAIN: FQDEKIEHGYENMNHFTVNLNREE [M3D]
protein stability index: 4.53
//
SEQUENCE CHAIN: FQMEKIEAGYENMNHFTVNLNREE [H8A]
protein stability index: 2.77
//
SEQUENCE CHAIN: FQMEKHEHGYENMNHFTVNLNREE [I6H]
protein stability index: 3.24
//
SEQUENCE CHAIN: FQMDKIEHGYENMNHFTVNLNREE [E4D]
protein stability index: 2.76
//
SEQUENCE CHAIN: FQMEKIEVGYENMNHFTVNLNREE [H8V]
protein stability index: 3.03
//
SEQUENCE CHAIN: FQMEKIEHGRENMNHFTVNLNREE [Y10R]
protein stability index: 3.18
//
SEQUENCE CHAIN: FQMEKIMHGYENMNHFTVNLNREE [E7M]
protein stability index: 2.46
//
SEQUENCE CHAIN: FQMEKIEHGYENMNCFTVNLNREE [H15C]
protein stability index: 2.22
//
SEQUENCE CHAIN: IQMEKIEHGYENMNHFTVNLNREE [F1I]
protein stability index: 4.23
//
SEQUENCE CHAIN: FQMEKIEHGCENMNHFTVNLNREE [Y10C]
protein stability index: 2.74
//
SEQUENCE CHAIN: FQMEKIEHGYENMNHFTVNLNEEE [R22E]
protein stability index: 3.77
//
SEQUENCE CHAIN: FQMEKIEHGYENVNHFTVNLNREE [M13V]
protein stability index: 2.46
//
SEQUENCE CHAIN: FQMEKIEHGYECMNHFTVNLNREE [N12C]
protein stability index: 2.06
//
SEQUENCE CHAIN: FQMEKIEHGYPNMNHFTVNLNREE [E11P]
protein stability index: 2.07
